The reported numbers originate from patent US20160215040A1.

SYSTEM_UNDER_TEST: T1, Ebola virus GP with a C-terminal polyhistidine tag (Sino Biologicals, Catalog #40442-V08B1) (Ebola virus, UniProt P87666 33-650)
T1 construct: also called EbolaGP.his; Ebola virus GP.his
ASSAY_NOTES: SPR 37C, mAb captured
Let's look at some binders and their measured kon.
Unit M⁻¹ s⁻¹ implied. Number only.

Sample answers from the record:
BINDER: H1H17223P (antibody, V domains shown) VH: EVQLVESGGGLVQPGGSLRLSCAASGFTFRTYDMHWVRQATGKGLEWVSAIGTAGDTYYPGSVKGRFTISRENAKNSLYLQMNSLRAGDTAVYYCARTIFGVVLTFDYWGQGTLVTVSS VL: DIQMTQSPSSLSASVGDRVTITCRASQSISSSLNWYQQKPGKAPKLLIYAASSLHSGVPSRFSGSGSGTDFTLTISSLQPEDFATYYCQQTYSIPPTTFGQGTKVEIK
MEASUREMENT: 35100
//
BINDER: H1M17357N (antibody, V domains shown, also called HCAF09D11-13) VH: QVQLVQSGAEVKKPGASVKVSCKASGYTFTSYYMHWVRQAPGQGLEWMGIINPSGGSTSYAQKFQGRVTMTRDTSTSTVYMELSSLRSEDTAVYYCAREIGEAGEVFNYWGQGTLVTVSS VL: DIQMTQSPSSLSASVGDRVTITCRASQSISRYLNWYQHKPGKAPKVLIYAASILQSGVPSRFSGSGSGTDFTLTISSLQPEDFATYYCQQSYSTPPITFGQGTRLEIK
MEASUREMENT: 23500

Please find the next binder below.
Q: # input binder: H1H17151P (antibody, V domains shown) VH: EVQLVESGGGLVQPGGSLRLSCAASGFTFSSYAMNWVRQAPGKGLEWVSVISGSGGWRNYADSVKGRITISRDNSKNTLYLQMNNLRAEDTAVYYCAKDRGATFGVVILGPPYYGMDVWGQGTTVTVSS VL: DIQMTQSPSSLSASVRDRVTITCRASQSISTYLNWYQQKPGKAPKLLIYAASSLQSGVPSRFSGSGSGTGFTLTISSLQPEDFATYYCQQSYSIPYTFGQGTKLEIK ; wanted: its kon
Ans: 22600
